# Test system: OVCAR-5 ovarian
# assay summary: NCI tumour cell line growth inhibition, 48 h
Give TGI for every item shown.

## Input Return value of TGI for input CCN(CC)CCCC(C)Nc1cnc(C(=O)Nc2cccc3ccc(OC)nc23)cn1 (stereo unspecified) , no commentary.
## Output 3.78 µM

## Input Return value of TGI for input CC(C)N1CN(C(C(=O)N[C@@H]2C(=O)N3C2SC(C)(C)C3C(=O)O)c2ccccc2)CSC1=S (stereo partly specified) , no commentary.
## Output > 100 µM

## Input Return value of TGI for input CCn1c2ccccc2n2c(=O)c3c(c(C#N)c12)CCCC3 , no commentary.
## Output > 100 µM

## Input Return value of TGI for input N#Cc1cccc(NC(=O)c2cc(-c3ccc(F)cc3F)ccc2O)c1 , no commentary.
## Output 25.5 µM

## Input Return value of TGI for input Cc1ccc(C(=O)Nc2ccc(CN3CCN(C)CC3)c(C(F)(F)F)c2)cc1C#Cc1cnc(N)c2ccccc12 , no commentary.
## Output 1.5 µM

## Input Return value of TGI for input COc1cccc(/C=C2\C(=O)N(C(=O)c3ccc(NC(C)=O)cc3)N=C2C)c1 , no commentary.
## Output > 100 µM

## Input Return value of TGI for input COc1ccc(/C(Cl)=C(\C=O)c2ccc([N+](=O)[O-])cc2)cc1 , no commentary.
## Output > 100 µM

## Input Return value of TGI for input CO[C@H]1C=C[C@@]23c4cc5c(cc4CO[C@]2(O)CN(C)[C@H]3C1)OCO5 , no commentary.
## Output > 100 µM

## Input Return value of TGI for input O=C1O/C(=C(/Br)c2ccc(Cl)c(Cl)c2)c2ccccc21 , no commentary.
## Output > 10 µM

## Input Return value of TGI for input CCOC(=O)c1c(C)nc2c(c1N)/C(=C/c1ccc(OC)cc1)C(=O)N2Cc1ccc(F)cc1 , no commentary.
## Output 0.561 µM

## Input Return value of TGI for input CC(=O)OC1(C)C=CC(=O)C=C1 , no commentary.
## Output > 100 µM

## Input Return value of TGI for input CCN(CC)CC(=O)O[C@]1(CC)C(=O)OCc2c1cc1n(c2=O)Cc2cc3ccccc3nc2-1 , no commentary.
## Output 1.43 µM

## Input Return value of TGI for input O=c1[nH]c(Nc2nc3ccccc3[nH]2)nc2c1CCC2 , no commentary.
## Output > 100 µM

## Input Return value of TGI for input CN1C2CCC1CC(CCNC(c1ccccc1)c1ccccc1)C2 (stereo unspecified) , no commentary.
## Output > 100 µM

## Input Return value of TGI for input CNc1nc2n(CCO)c(-c3ccccc3)c(-c3ccccc3)nc-2c(=O)n1 , no commentary.
## Output > 50 µM

## Input Return value of TGI for input COc1ccc(C2SCC(=O)N2NC(=O)Nc2c(C)nc3ccccn23)cc1 (stereo unspecified) , no commentary.
## Output > 100 µM

## Input Return value of TGI for input CCCCCCC(=O)C/C(=N/NC(N)=S)C(=O)NC1C2CC3CC(C2)CC1C3 (stereo unspecified) , no commentary.
## Output > 100 µM

## Input Return value of TGI for input O=c1[nH]nc(Cc2ccccc2)[nH]1 , no commentary.
## Output > 100 µM

## Input Return value of TGI for input O=C1NN(C2=NNC3(C(=O)N2)c2ccccc2-c2ccccc23)C(c2ccccc2)=N/C1=C/c1ccc(O)cc1 , no commentary.
## Output > 150 µg/mL

## Input Return value of TGI for input C=CC1(C)CCC2=C(CCC3C(C)(C(=O)OC)CCCC23C)C1=O (stereo unspecified) , no commentary.
## Output 29.5 µM

## Input Return value of TGI for input N#C/C(=C\c1cc2ccccc2c2ccccc12)c1ccccc1 , no commentary.
## Output 98.6 µM

###

Give TGI for every item shown.
# System: SK-MEL-2 melanoma
# assay summary: NCI tumour cell line growth inhibition, 48 h

## Input Return value of TGI for input O=C1NC2OCC(O)C(O)C2O1 (stereo not given) , no commentary.
## Output > 100 µM

## Input Return value of TGI for input CC1=CC(=O)N(n2c(Cc3ccccc3)n[nH]c2=O)C1=O , no commentary.
## Output > 100 µM

## Input Return value of TGI for input c1csc(-c2cc(-c3cccs3)c(-c3ccsc3)s2)c1 , no commentary.
## Output > 100 µM

## Input Return value of TGI for input COC(=O)C12C3C4C1C1C2C3C41NC(=O)c1csc([C@@H](C[C@H](C(C)C)N(C)C(=O)[C@@H](NC(=O)[C@H]2CCCCN2C)C2CC2)OC(C)=O)n1 (stereo not given in full) , no commentary.
## Output > 33.3 µM

## Input Return value of TGI for input C=C1CC[C@H](O)C(C)(C)[C@@H]1CC/C(C)=C/CC/C=C(\C)CC/C=C(\C)CCC=C(C)C , no commentary.
## Output > 100 µM

## Input Return value of TGI for input CCc1oc2ccccc2c1C(=O)c1cc(I)c(O)c(I)c1 , no commentary.
## Output 28 µM

## Input Return value of TGI for input Cc1cc(=O)n2nc(CN3CCCCC3)sc2n1 , no commentary.
## Output > 100 µM

## Input Return value of TGI for input COc1cccc(N2C(=O)[C@H]3CC(C)c4c([nH]c5ccccc45)[C@H]3C2=O)c1 (stereo not given in full) , no commentary.
## Output > 100 µM

## Input Return value of TGI for input C/C(=C1/CCC/C(=C(/C)c2ccccc2)C1=O)c1ccccc1 , no commentary.
## Output 38.7 µM

## Input Return value of TGI for input N.N.O=C([O-])P(=O)([O-])[O-].[Na+].[Pt+4] , no commentary.
## Output > 100 µM

###

# Test system: NCI-H23 lung
# assay summary: NCI tumour cell line growth inhibition, 48 h; in the data active means GI50 below about 0.43 µM; inactive means the rest
Log the outcome using a class from active, inactive

## Input Assay outcome for O=C1/C(=C/c2ccc(O)cc2)CSc2ccc(Cl)cc21 : what was it?
## Output inactive

## Input Assay outcome for COc1ccccc1Cn1cc2c(c1-c1ccccc1)CCc1cnoc1-2 : what was it?
## Output inactive

## Input Assay outcome for O=C(O)[C@@H]1CCCCN1Cc1cc2cc3c(cc2c2cc(OCc4ccccc4)ccc12)OCO3 : what was it?
## Output inactive

## Input Assay outcome for CC1(C)N=C(N)N=C(N)N1c1ccc(OCc2ccc(S(=O)(=O)F)c(Cl)c2)c(Cl)c1 : what was it?
## Output inactive

## Input Assay outcome for COC(=O)[C@H](Cc1c[nH]c2ccccc12)NC(=O)[C@@H](OC)[C@@H]1Cc2cc3cc(OC4CC(OC5CC(O)C(O)C(C)O5)C(O)C(C)O4)c(C)c(O)c3c(O)c2C(=O)[C@H]1OC1CC(OC2CC(OC3CC(C)(O)C(O)C(C)O3)C(O)C(C)O2)C(O)C(C)O1 (stereo not given in full) : what was it?
## Output active

###

Give TGI for every item shown.
# System: HT29 colon
# assay summary: NCI tumour cell line growth inhibition, 48 h

## Input Specify the recorded TGI for COC(=O)C(NC(=O)c1ccccc1)c1ccco1 (stereo not drawn) , system: HT29 colon.
## Output > 100 µM

## Input Specify the recorded TGI for O=C(O)[C@@H]1CSCN1C(=O)[C@@H]1CCC(=S)N1 , system: HT29 colon.
## Output > 100 µM

## Input Specify the recorded TGI for O=c1[nH]nc(Cc2ccccc2)[nH]1 , system: HT29 colon.
## Output > 100 µM

## Input Specify the recorded TGI for CCCCN1CSC(=S)N(Cc2ccccc2)C1 , system: HT29 colon.
## Output > 100 µM

## Input Specify the recorded TGI for O=C(/C(=C/c1cccc([N+](=O)[O-])c1)c1ccccc1)c1ccccc1 , system: HT29 colon.
## Output 8.83 µM

## Input Specify the recorded TGI for COc1cc(OC)cc(-c2nc3cc(F)ccc3s2)c1 , system: HT29 colon.
## Output > 100 µM

## Input Specify the recorded TGI for CCOC(=O)CN=C1NNS(=O)(=O)c2ccccc21 , system: HT29 colon.
## Output > 100 µM

## Input Specify the recorded TGI for c1cc[c]([Pb]([c]2ccccc2)[c]2ccccc2)cc1 , system: HT29 colon.
## Output 49.6 µM

## Input Specify the recorded TGI for CCc1c(C)c(C#N)c(=S)n(C2OC(COC(C)=O)C(OC(C)=O)C(OC(C)=O)C2OC(C)=O)c1C (stereo not drawn) , system: HT29 colon.
## Output > 100 µM

## Input Specify the recorded TGI for Cc1ccc2[nH]c(C(=O)NN3C(=O)C(C)SC34CCCC(C)C4)c(-c3ccccc3)c2c1 (stereo not drawn) , system: HT29 colon.
## Output > 100 µM

## Input Specify the recorded TGI for CCCCCCC(=O)C/C(=N/NC(N)=S)C(=O)NC1C2CC3CC(C2)CC1C3 (stereo not drawn) , system: HT29 colon.
## Output > 100 µM

## Input Specify the recorded TGI for CC1(C)CC(=O)C(/C=N/c2nc(-c3ccccc3)cs2)=C(O)C1 , system: HT29 colon.
## Output > 100 µM

## Input Specify the recorded TGI for C=C1C(=O)O[C@H]2[C@H]1CC/C(COC(=O)c1cc3ccccc3s1)=C\CC[C@@]1(C)O[C@@H]21 , system: HT29 colon.
## Output 1.84 µM
